Attribution: patent US20140037574A1

Please respond with reported inhibition at 10 min for every item in the list.
target: CYP3A4 (Homo sapiens, UniProt P08684); assay: in vitro; settings: human, microsomes, pH 7.4
Sequence (P08684 whole entry): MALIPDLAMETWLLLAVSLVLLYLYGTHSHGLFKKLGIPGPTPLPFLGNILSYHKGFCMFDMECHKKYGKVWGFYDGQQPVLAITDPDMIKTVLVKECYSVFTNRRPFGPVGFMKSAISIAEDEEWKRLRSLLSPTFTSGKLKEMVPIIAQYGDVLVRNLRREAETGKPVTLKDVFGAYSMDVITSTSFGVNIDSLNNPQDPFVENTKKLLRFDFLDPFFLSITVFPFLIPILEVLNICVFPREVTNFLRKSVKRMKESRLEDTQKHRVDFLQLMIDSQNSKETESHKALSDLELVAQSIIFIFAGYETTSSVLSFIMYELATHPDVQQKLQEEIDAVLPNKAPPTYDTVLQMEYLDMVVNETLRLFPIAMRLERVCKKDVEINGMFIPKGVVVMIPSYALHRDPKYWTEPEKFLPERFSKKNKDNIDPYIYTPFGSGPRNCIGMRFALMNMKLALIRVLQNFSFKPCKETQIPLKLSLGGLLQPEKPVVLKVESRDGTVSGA
One number for each entry, in %.

[[record]]
chemical_structure = "C[C@@H]1O[C@@H](O[C@H]2[C@H](Oc3cc(O)c4c(c3)O[C@H](c3ccc(O)cc3)CC4=O)O[C@H](CO)[C@@H](O)[C@@H]2O)[C@H](O)[C@H](O)[C@H]1O"
endpoint = "inhibition at 10 min"
recorded_value = 98

[[record]]
chemical_structure = "O=c1c(O)c(-c2ccc(O)c(O)c2)oc2cc(O)cc(O)c12"
endpoint = "inhibition at 10 min"
recorded_value = 98


Let's switch to this compound now.
Quote inhibition at 10 min reported for O=C1C[C@@H](c2ccc(O)cc2)Oc2cc(O)cc(O)c21 please.
95
